Measured GI50 by item
- study.target: ABL T315I BAF3 cells (Homo sapiens, UniProt P00519, T315I, cells depend on it)
- Construct: ABL T315I BAF3; fused on or other part: P11274 (Breakpoint cluster region protein)
- test.method.notes: 96-well XTT cell survival assay, BaF3 ABL T315I
- Format: cell-based
- setup.conditions: 72 hours, read-out: CELL BIO ABL T315I BAF3 XTT (IC50)

molecule	GI50
COc1ccccc1-c1c[nH]c2ncc(-c3cncc(C(O)C(=O)N(C)C)c3)c(Cl)c12 (stereo not drawn)	< 10 nM
COc1cc(F)ccc1-c1c[nH]c2ncc(-c3cnc(N)c(C(=O)N(C)C)c3)c(Cl)c12	10 to 100 nM
CCN(C)C(=O)c1cc(-c2cnc3[nH]cc(-c4cc(F)ccc4F)c3c2Cl)cnc1N	100 to 1000 nM
COc1ccccc1-c1c[nH]c2ncc(-c3cncc(C(=O)C(=O)N(C)C)c3)c(OC)c12	10 to 100 nM
CSc1ccccc1-c1c[nH]c2ncc(-c3cncc(C(=O)N(C)C)c3)c(Cl)c12	> 1000 nM
Nc1ncc(-c2cnc3[nH]cc(-c4cc(F)ccc4F)c3c2Cl)cc1C(=O)N1CC(O)C1	100 to 1000 nM
COc1ccccc1-c1c[nH]c2ncc(-c3cccc(C(=O)N(C)C)c3)c(C)c12	10 to 100 nM
CNc1ncccc1-c1c[nH]c2ncc(-c3cncc(C(O)C(=O)N(C)C)c3)c(Cl)c12 (stereo not drawn)	> 1000 nM
COc1ccc(F)cc1-c1c[nH]c2ncc(-c3cncc(C(O)c4ncccc4F)c3)c(Cl)c12 (stereo not drawn)	10 to 100 nM
